Reference source: patent US11046680B1

- EXPERIMENTAL TARGET: human APJ receptor (Homo sapiens (Human), UniProt P35414)
- Sequence (P35414 whole entry): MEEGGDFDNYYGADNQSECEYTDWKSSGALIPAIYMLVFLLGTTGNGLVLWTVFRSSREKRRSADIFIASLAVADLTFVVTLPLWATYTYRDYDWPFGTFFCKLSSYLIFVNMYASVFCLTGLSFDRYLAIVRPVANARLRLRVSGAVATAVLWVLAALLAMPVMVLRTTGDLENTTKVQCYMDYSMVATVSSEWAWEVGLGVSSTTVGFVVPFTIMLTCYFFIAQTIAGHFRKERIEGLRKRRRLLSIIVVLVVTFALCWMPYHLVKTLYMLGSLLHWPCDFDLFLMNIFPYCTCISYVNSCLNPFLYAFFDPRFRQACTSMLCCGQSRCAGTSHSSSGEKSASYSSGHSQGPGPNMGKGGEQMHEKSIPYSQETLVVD
- TEST METHOD NOTES: biochemical
- EXPERIMENTAL CONDITIONS: [35S]GTPγS binding, CHO membranes expressing human APJ receptor; read-out: Activity hAPJ SPA EC50 IP
pEC50: −log10 of the molar value.
Classes based on pEC50: group 1 = under 8, group 2 = from 8 up to 9, group 3 = 9 and over

MOLECULE	GROUP LABEL
COc1cccc(OC)c1-n1c(NS(=O)(=O)[C@@H](C)[C@H](OC)c2ncc(Cl)cn2)nnc1-c1cncc(C)n1	group 3
COc1cccc(OC)c1-n1c(NS(=O)(=O)[C@@H](C)[C@H](OC)c2ncc(Cl)cn2)nnc1-c1n[nH]c2ccc(C)cc12	group 2
COc1cccc(OC)c1-n1c(NS(=O)(=O)[C@H](C)Cc2ncc(F)cn2)nnc1-c1nc(C(C)C)cs1 (single isomer, unassigned) [Example 158.0]	group 2
COc1ccc(N2CCCC2=O)cc1-n1c(NS(=O)(=O)CCc2ccc(Cl)cc2)nnc1-c1cccs1	group 1
COc1cccc(OC)c1-n1c(NS(=O)(=O)[C@H](C)Cc2ncc(F)cn2)nnc1-c1ncccn1 (single isomer, unassigned) [Example 59.0]	group 1

Task item: Any idea which band `COc1ccccc1-n1c(NS(=O)(=O)CCc2ccc(F)cc2)nnc1-c1cccs1` is in?
Reply: group 1

Task item: Any idea which band `Cc1cnc([C@@H](C)[C@H](C)S(=O)(=O)Nc2nnc(-c3ccn(C)n3)n2-c2c(F)cccc2F)cn1` is in?
Reply: group 1

Task item: Any idea which band `COc1ncnc(OC)c1-n1c(NS(=O)(=O)[C@@H](C)[C@H](OC)c2ncc(Cl)cn2)nnc1-c1noc2ccccc12` is in?
Reply: group 1

Task item: Any idea which band `COc1cccc(OC)c1-n1c(NS(=O)(=O)CCc2ccc(Cl)cc2)nnc1-c1cccs1` is in?
Reply: group 2

Task item: Any idea which band `CCc1nc(-c2nnc(NS(=O)(=O)CCc3ccc(F)cc3C#N)n2-c2c(OC)cccc2OC)cs1` is in?
Reply: group 1

* * *

- EXPERIMENTAL TARGET: human APJ receptor (Homo sapiens (Human), UniProt P35414)
- TEST METHOD NOTES: biochemical
- EXPERIMENTAL CONDITIONS: [35S]GTPγS binding, CHO membranes expressing human APJ receptor; read-out: Activity hAPJ SPA EC50 IP
EC50 vs 3 nM: less than gives YES; not less than gives NO.

>>> df
                                smiles_code  group_label
0  COc1cccc(OC)c1-n1c(NS(=O)(=O)[C@@H](C)[C@H](OC)c2ncc(C)cn2)nnc1-c1ccn(C)n1          YES
1  COc1cnc([C@H](C)[C@@H](C)S(=O)(=O)Nc2nnc(-c3ccn(C)n3)n2-c2c(OC)cccc2OC)cn1           NO
2  COc1ncnc(OC)c1-n1c(NS(=O)(=O)[C@@H](C)[C@H](OC)c2ncc(C)cn2)nnc1-c1nc(C2CC2)cs1          YES
3  COc1cccc(OC)c1-n1c(NS(=O)(=O)[C@@H](C)[C@H](OC)c2ncc(Cl)cn2)nnc1-c1cnn(C)c1C(C)C           NO
4  COc1cccc(OC)c1-n1c(NS(=O)(=O)CCc2ccc(Cl)cc2)nnc1-c1ccsc1           NO
5  COc1cncc(-c2nnc(NS(=O)(=O)[C@@H](C)[C@H](OC)c3ncc(C)cn3)n2-c2c(OC)cccc2OC)n1          YES

// switching to the query compound
Task item: Regarding `COc1cccc(OC)c1-n1c(NS(=O)(=O)[C@@H](C)[C@H](C)c2ncc(C)cn2)nnc1-c1noc2ccccc12` , kindly confirm whether its EC50 is beneath 3 nM.
Reply: NO
